- assay-explanation: Mean residence time (0 to t) in Sprague-Dawley rat at 5 mg/kg, iv
- Format: ADME, organism-based
- Set-up: dose 5 mg/kg, route intravenous
- condition-info: in vivo
Quick list: MRT last per entry.
State the answer as a number, implicitly in min.

A selection of reference data follows.
[ask] Which measured MRT last value corresponds to "Cc1cnc(NC(=O)[C@@H]2C=CCN2C(=O)[C@H](CC2CCCC2)CN(O)C=O)s1" ?
[reply] 74.4

[ask] For the compound "CCCC[C@H](CN(O)C=O)C(=O)N1CC=C[C@H]1C(=O)Nc1ccc(F)c[n+]1[O-]" , what MRT last is on record?
[reply] 33.8

[ask] Given the compound "CCCC[C@H](CN(O)C=O)C(=O)N1CC=C[C@H]1C(=O)Nc1ncc(C)s1" , what is its reported MRT last?
[reply] 57.1

New cases:
[ask] Given the entry "O=CN(O)C[C@@H](CC1CCCC1)C(=O)N1CC=C[C@H]1C(=O)Nc1ccc(F)c[n+]1[O-]" , report its measured MRT last.
[reply] 30.2

[ask] Quick check: MRT last of "C=C1C[C@@H](C(=O)Nc2ncc(C)s2)N(C(=O)[C@H](CCCC)CN(O)C=O)C1" ?
[reply] 122

====

# half-life per entry
- assay-explanation: Half life in Sprague-Dawley rat at 25 mg/kg, po
- Type: ADME, organism-based
- Set-up: dose 25 mg/kg, route oral
- condition-info: in vivo
Number only, in h; omit the unit.

# annotated cases, reported half-life shown
[ask] Give the measured half-life of "O=CN(O)C[C@@H](CC1CCCC1)C(=O)N1CC=C[C@H]1C(=O)Nc1ccc(F)c[n+]1[O-]" .
[reply] 2.58

[ask] If you can, please state the reported half-life value of "CCCC[C@H](CN(O)C=O)C(=O)N1CC=C[C@H]1C(=O)Nc1ncc(C)s1" .
[reply] 2.56

[ask] Bench note: what half-life did "Cc1cnc(NC(=O)[C@@H]2C=CCN2C(=O)[C@H](CC2CCCC2)CN(O)C=O)s1" show?
[reply] 3.31

Further cases:
[ask] So what's the measured half-life for this one? "C=C1C[C@@H](C(=O)Nc2ncc(C)s2)N(C(=O)[C@H](CCCC)CN(O)C=O)C1"
[reply] 3.02

[ask] Could you tell me which half-life is on file for "CCCC[C@H](CN(O)C=O)C(=O)N1CC=C[C@H]1C(=O)Nc1ccc(F)c[n+]1[O-]" ?
[reply] 1.82

====

- assay-explanation: Oral bioavailability in Sprague-Dawley rat at 25 mg/kg
- Assay type: ADME, organism-based
- condition-info: in vivo
value-type: bioavailability (%)
Write the answer as a number in %, unit excluded.

[ask] Consider the compound shown here: "CCCC[C@H](CN(O)C=O)C(=O)N1CC=C[C@H]1C(=O)Nc1ccc(F)c[n+]1[O-]" What is its recorded bioavailability?
[reply] 34.6

[ask] So what does the record say about bioavailability for "Cc1cnc(NC(=O)[C@@H]2C=CCN2C(=O)[C@H](CC2CCCC2)CN(O)C=O)s1" ?
[reply] 52.3

[ask] What bioavailability value was documented for this compound, "O=CN(O)C[C@@H](CC1CCCC1)C(=O)N1CC=C[C@H]1C(=O)Nc1ccc(F)c[n+]1[O-]" ?
[reply] 22.4

---
[ask] Param item = "C=C1C[C@@H](C(=O)Nc2ncc(C)s2)N(C(=O)[C@H](CCCC)CN(O)C=O)C1" ; retrieve measured bioavailability.
[reply] 58.9

[ask] Quick one: bioavailability for "CCCC[C@H](CN(O)C=O)C(=O)N1CC=C[C@H]1C(=O)Nc1ncc(C)s1" ?
[reply] 88.7

This collection of values is drawn from ChEMBL document CHEMBL3352487.
